measured.target: TLR7 (Homo sapiens)
Sequence (Q9NYK1 27-1049): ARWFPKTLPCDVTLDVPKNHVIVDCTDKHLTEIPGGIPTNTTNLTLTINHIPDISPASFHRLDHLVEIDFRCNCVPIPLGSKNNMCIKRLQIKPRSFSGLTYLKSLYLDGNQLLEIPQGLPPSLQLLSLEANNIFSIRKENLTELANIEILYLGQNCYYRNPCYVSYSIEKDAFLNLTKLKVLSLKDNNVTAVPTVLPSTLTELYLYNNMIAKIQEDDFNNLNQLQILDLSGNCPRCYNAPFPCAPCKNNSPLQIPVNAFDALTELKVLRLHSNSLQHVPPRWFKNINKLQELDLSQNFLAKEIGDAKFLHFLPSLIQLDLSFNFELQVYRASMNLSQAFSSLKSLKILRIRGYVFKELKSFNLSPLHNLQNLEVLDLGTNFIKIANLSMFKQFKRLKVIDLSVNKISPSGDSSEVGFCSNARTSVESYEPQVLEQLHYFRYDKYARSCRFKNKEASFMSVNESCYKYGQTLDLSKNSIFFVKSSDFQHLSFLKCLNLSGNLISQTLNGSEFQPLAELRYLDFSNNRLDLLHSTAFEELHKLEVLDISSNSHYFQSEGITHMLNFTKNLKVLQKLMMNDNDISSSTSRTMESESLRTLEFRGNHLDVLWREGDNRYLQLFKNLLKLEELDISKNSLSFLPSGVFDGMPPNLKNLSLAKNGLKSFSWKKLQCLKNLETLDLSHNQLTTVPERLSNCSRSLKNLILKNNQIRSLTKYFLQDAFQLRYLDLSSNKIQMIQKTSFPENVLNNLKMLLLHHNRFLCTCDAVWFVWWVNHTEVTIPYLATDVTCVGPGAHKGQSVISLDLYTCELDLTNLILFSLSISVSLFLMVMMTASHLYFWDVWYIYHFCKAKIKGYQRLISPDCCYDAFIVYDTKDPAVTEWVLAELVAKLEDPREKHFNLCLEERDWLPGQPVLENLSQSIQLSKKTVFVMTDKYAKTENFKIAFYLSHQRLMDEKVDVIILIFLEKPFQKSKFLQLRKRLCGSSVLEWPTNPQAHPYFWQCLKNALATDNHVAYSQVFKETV
protocol.notes: HEK/293 TLR7 Cell Assay
assay.setup: TLR7/NFKb HEK cells, R848 agonist 10 uM final concentration, Steady-Glo readout; read-out: TLR7 potency
pIC50: −log10 of the molar value.
Below, each entry is listed alongside its reported pIC50.

For orientation, consider the following solved cases.
# molecule, measured.target, pIC50
data = [
    ("CCN(CC)CCO[C@@H]1C[C@H](C)CN(c2ccc(C#N)c3nccnc23)C1", "TLR7 (Homo sapiens)", "> 7.12"),
    ("COC[C@@H](O)CNC(=O)[C@H]1CN(c2ccc(C#N)c3nccnc23)C[C@@H](C)O1 (single isomer, unassigned)", "TLR7 (Homo sapiens)", "> 7.12"),
]

Query block: // lookup pIC50 for CCN(CC)CCO[C@@H]1C[C@H](C)CN(c2ccc(C(F)(F)F)c3ncccc23)C1 (relative stereo)
Result block: < 6.82
